- tested_system: UniProt:Q9H3N8
- Sequence (Q9H3N8 whole entry): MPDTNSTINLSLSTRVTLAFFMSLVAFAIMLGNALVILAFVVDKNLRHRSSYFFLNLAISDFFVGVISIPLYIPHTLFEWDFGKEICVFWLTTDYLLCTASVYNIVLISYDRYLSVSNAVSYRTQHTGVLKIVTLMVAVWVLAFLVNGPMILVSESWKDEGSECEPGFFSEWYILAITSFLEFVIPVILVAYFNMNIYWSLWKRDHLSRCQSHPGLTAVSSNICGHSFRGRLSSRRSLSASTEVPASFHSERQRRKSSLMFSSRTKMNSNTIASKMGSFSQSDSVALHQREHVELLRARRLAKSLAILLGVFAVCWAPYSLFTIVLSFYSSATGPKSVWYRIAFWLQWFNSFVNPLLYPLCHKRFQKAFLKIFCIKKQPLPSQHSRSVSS
- experimental_protocol: Binding affinity to human H4R
readout_label: Ki

Quick note, Ki for "C[C@@H]1CC[C@@H](C)N1CCCOc1ccc(-c2ccc(C(=O)N3CCOCC3)cc2)cc1" landed at > 10 µM

###

- tested_system: UniProt:Q9H3N8
- experimental_protocol: Displacement of [3H]histamine from human recombinant H4R expressed in CHO cells incubated for 60 mins by microbeta scintillation counter method
- Format: cell-based
readout_label: pKi
Quick note: pKi values are minus log10 of concentrations in mol/L.

get_value(item= "O=C(O)C(=O)O.c1ccc(-c2ccc(OCCCCCN3CCCCCC3)cc2)cc1" , readout=pKi) returns 4.66

Lab note: "O=C(O)C(=O)O.c1ccc(-c2ccc(OCCCCCN3CCCCC3)cc2)cc1" gave pKi of 4.70
